The reported measurements were obtained from patent US20240254119A1.

Molecular target: BCRP (BCRP-MDCKII monolayer) (Homo sapiens, UniProt Q9UNQ0)
Construct: host or cells: MDCKII (canine kidney) cells
Sequence (Q9UNQ0 1-655): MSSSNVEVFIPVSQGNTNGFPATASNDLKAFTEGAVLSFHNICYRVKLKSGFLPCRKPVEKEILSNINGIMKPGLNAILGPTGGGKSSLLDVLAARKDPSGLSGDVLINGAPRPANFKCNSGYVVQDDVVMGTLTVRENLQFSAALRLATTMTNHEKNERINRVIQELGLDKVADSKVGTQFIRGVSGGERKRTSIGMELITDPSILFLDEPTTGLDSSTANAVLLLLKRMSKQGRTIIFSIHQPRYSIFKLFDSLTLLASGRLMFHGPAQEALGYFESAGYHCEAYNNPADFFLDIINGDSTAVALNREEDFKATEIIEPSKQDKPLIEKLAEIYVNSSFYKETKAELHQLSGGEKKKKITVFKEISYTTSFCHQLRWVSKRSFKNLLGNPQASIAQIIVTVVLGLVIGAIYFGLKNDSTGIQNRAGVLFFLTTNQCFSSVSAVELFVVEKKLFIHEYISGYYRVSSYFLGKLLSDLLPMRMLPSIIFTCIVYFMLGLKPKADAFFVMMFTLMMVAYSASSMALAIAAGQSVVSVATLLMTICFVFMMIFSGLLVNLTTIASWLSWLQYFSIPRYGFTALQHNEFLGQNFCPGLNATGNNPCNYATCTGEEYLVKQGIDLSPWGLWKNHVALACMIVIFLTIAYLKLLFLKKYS
Assay: MDCKII-BCRP bidirectional transport assay
Format: in vitro ADME
recorded-endpoint: MDCK-BCRP: Efflux Ratio

compound	recorded-endpoint	result
COC(=O)N1CC(c2nc(-c3ccc(C)c(NC(=O)c4cnn5ccc(C#N)cc45)c3)no2)C1	MDCK-BCRP: Efflux Ratio	19.4
Cc1ccc(-c2noc(C3CC(S(=O)(=O)N(C)C)C3)n2)cc1NC(=O)c1cnc2ccccn12 (stereo not shown)	MDCK-BCRP: Efflux Ratio	14.1
Cc1ccc(-c2noc(C3CC(C)(F)C3)n2)cc1NC(=O)c1cnc2ccccn12 (stereo not shown)	MDCK-BCRP: Efflux Ratio	0.82
Cc1ccc(-c2noc([C@H]3C[C@@H]3F)n2)cc1NC(=O)c1cnc2ccc(F)cn12	MDCK-BCRP: Efflux Ratio	1.01
